# Test system: UACC-62
# Assay type: cell-based
# EXPERIMENTAL SETUP: Homo sapiens, one dose 10^-5 M, 48 h
Could you please mark True for values of % growth at 10 µM below 90% and False for values at or above it?

Some entries whose results are on file:
>>> print(df.to_string())
                        structure_as_smiles  subject_of_test  group
0  CN(C)c1ccc(-c2nc(S)nc(N)c2C(=N)NN=Cc2ccc(Cl)cc2)cc1          UACC-62  False
1  N=C(NN=Cc1ccc([N+](=O)[O-])cc1)c1c(N)nc(S)nc1-c1ccc(Cl)cc1Cl          UACC-62   True
2  CN(C)c1ccc(-c2nc(S)nc(N)c2C(=N)NN=Cc2ccccc2)cc1          UACC-62  False
3  COc1ccc(C=NNC(=N)c2c(N)nc(S)nc2-c2ccc(Cl)cc2)cc1          UACC-62  False

Q: Consider COc1ccc(/C=N\NC(=N)c2c(N)nc(S)nc2-c2ccc(N(C)C)cc2)cc1 . Does its % growth at 10 µM lie strictly below 90%?
Result: False

Q: Consider N=C(NN=Cc1ccccc1)c1c(N)nc(S)nc1-c1ccc(Cl)cc1Cl . Does its % growth at 10 µM lie strictly below 90%?
Result: False

Q: Consider N=C(NN=Cc1ccccc1)c1c(N)nc(S)nc1-c1ccc(Cl)cc1 . Does its % growth at 10 µM lie strictly below 90%?
Result: True

###

For each entry below, report its % growth at 10 µM value.
# Test system: SF-539
# Format: cell-based
# EXPERIMENTAL SETUP: Homo sapiens, one dose 10^-5 M, 48 h
Give bare numbers, in %.

                        structure_as_smiles  unit_string  number
0  N=C(NN=Cc1ccc(Cl)cc1Cl)c1c(N)nc(S)nc1-c1ccc(Cl)cc1Cl            %     101
1  N=C(NN=Cc1ccc(Br)cc1)c1c(N)nc(S)nc1-c1ccc(Cl)cc1            %    71.2
2  N=C(NN=Cc1ccc(Cl)cc1)c1c(N)nc(S)nc1-c1ccc(Cl)cc1            %    80.4
3  N=C(NN=Cc1ccccc1)c1c(N)nc(S)nc1-c1ccc(Cl)cc1Cl            %     100

I need % growth at 10 µM for every entry listed below, if you could help.
1. N=C(NN=Cc1ccc(Cl)cc1Cl)c1c(N)nc(S)nc1-c1ccc(Cl)cc1
2. CN(C)c1ccc(-c2nc(S)nc(N)c2C(=N)NN=Cc2ccc(Br)cc2)cc1
3. CN(C)c1ccc(-c2nc(S)nc(N)c2-c2ncn[nH]2)cc1
4. N#Cc1c(N)nc(S)nc1-c1ccc(Cl)cc1Cl
5. N=C(NN=Cc1ccccc1)c1c(N)nc(S)nc1-c1ccc(Cl)cc1

Result:
70.3
101
108
39.9
11.4

I need % growth at 10 µM for every entry listed below, if you could help.
1. Nc1nc(S)nc(-c2ccc(Cl)cc2)c1-c1ncn[nH]1
2. N=C(NN=Cc1ccc(Br)cc1)c1c(N)nc(S)nc1-c1ccc(Cl)cc1Cl

Result:
[92.5, 102]

###

For each entry below, report its % cell growth at 10 µM value.
# System: SF-295
# Format: cell-based
# EXPERIMENTAL SETUP: Homo sapiens, one dose 10^-5 M, 48 h
Numbers only, in %.

Worked cases, answers included:
                        structure_as_smiles  unit_string  number
0  N=C(NN=Cc1ccc(Cl)cc1)c1c(N)nc(S)nc1-c1ccc(Cl)cc1Cl            %    73.4
1          N#Cc1c(N)nc(S)nc1-c1ccc(Cl)cc1Cl            %    78.1
2  N=C(NN=Cc1ccc(Br)cc1)c1c(N)nc(S)nc1-c1ccc(Cl)cc1Cl            %    96.6
3    Nc1nc(S)nc(-c2ccc(Cl)cc2)c1-c1ncn[nH]1            %    93.7
4         CN(C)c1ccc(-c2nc(S)nc(N)c2C#N)cc1            %     103
5  COc1ccc(C=NNC(=N)c2c(N)nc(S)nc2-c2ccc(Cl)cc2)cc1            %    97.5
6  N=C(NN=Cc1ccccc1)c1c(N)nc(S)nc1-c1ccc(Cl)cc1Cl            %    86.9
7  N=C(NN=Cc1ccc(Cl)cc1Cl)c1c(N)nc(S)nc1-c1ccc(Cl)cc1Cl            %    98.5

Q: Given the entry CN(C)c1ccc(-c2cc([N+](=O)[O-])ccc2C=NNC(=N)c2cnc(S)nc2N)cc1 , report its measured % cell growth at 10 µM.
Result: 92.4

###

# Tested on: MOLT-4
# Assay type: cell-based
# EXPERIMENTAL SETUP: Homo sapiens, one dose 10^-5 M, 48 h, read-out: % growth
REPORTED PROPERTY: activity at 10 µM (%)
One number for each entry, in %.

>>> df
                        structure_as_smiles  unit_string  number
0    Nc1nc(S)nc(-c2ccc(Cl)cc2)c1-c1ncn[nH]1            %     108
1  CN(C)c1ccc(-c2nc(S)nc(N)c2C(=N)NN=Cc2ccc(Cl)cc2Cl)cc1            %     100
2  N=C(NN=Cc1ccc(Cl)cc1Cl)c1c(N)nc(S)nc1-c1ccc(Cl)cc1Cl            %     100
3  CN(C)c1ccc(-c2cc([N+](=O)[O-])ccc2C=NNC(=N)c2cnc(S)nc2N)cc1            %     109

I need activity at 10 µM for every entry listed below, if you could help.
1. N=C(NN=Cc1ccc(Br)cc1)c1c(N)nc(S)nc1-c1ccc(Cl)cc1Cl
2. N#Cc1c(N)nc(S)nc1-c1ccc(Cl)cc1Cl
3. CN(C)c1ccc(-c2nc(S)nc(N)c2C(=N)NN=Cc2ccccc2)cc1
4. N=C(NN=Cc1ccc(Br)cc1)c1c(N)nc(S)nc1-c1ccc(Cl)cc1
5. COc1ccc(C=NNC(=N)c2c(N)nc(S)nc2-c2ccc(Cl)cc2Cl)cc1
6. N=C(NN=Cc1ccc(Cl)cc1)c1c(N)nc(S)nc1-c1ccc(Cl)cc1Cl
7. Nc1nc(S)nc(-c2ccc(Cl)cc2Cl)c1-c1ncn[nH]1
8. COc1ccc(/C=N\NC(=N)c2c(N)nc(S)nc2-c2ccc(N(C)C)cc2)cc1

Result:
1. 91.4
2. 6.11
3. 106
4. 54.6
5. 95.7
6. 92.4
7. 91.4
8. 101

I need activity at 10 µM for every entry listed below, if you could help.
1. N=C(NN=Cc1ccc(Cl)cc1)c1c(N)nc(S)nc1-c1ccc(Cl)cc1
2. CN(C)c1ccc(-c2nc(S)nc(N)c2C(=N)NN=Cc2ccc(Br)cc2)cc1
3. N=C(NN=Cc1ccc(Cl)cc1Cl)c1c(N)nc(S)nc1-c1ccc(Cl)cc1
4. N#Cc1c(N)nc(S)nc1-c1ccc(Cl)cc1
5. N=C(NN=Cc1ccc([N+](=O)[O-])cc1)c1c(N)nc(S)nc1-c1ccc(Cl)cc1Cl
6. N=C(NN=Cc1ccc([N+](=O)[O-])cc1)c1c(N)nc(S)nc1-c1ccc(Cl)cc1
7. CN(C)c1ccc(-c2nc(S)nc(N)c2C#N)cc1

Result:
1. 85.8
2. 103
3. 66.4
4. 50.7
5. 94
6. 105
7. 92.6

I need activity at 10 µM for every entry listed below, if you could help.
1. CN(C)c1ccc(-c2nc(S)nc(N)c2-c2ncn[nH]2)cc1
2. N=C(NN=Cc1ccccc1)c1c(N)nc(S)nc1-c1ccc(Cl)cc1

Result:
1: 100; 2: 58.5

I need activity at 10 µM for every entry listed below, if you could help.
1. N=C(NN=Cc1ccccc1)c1c(N)nc(S)nc1-c1ccc(Cl)cc1Cl
2. COc1ccc(C=NNC(=N)c2c(N)nc(S)nc2-c2ccc(Cl)cc2)cc1
3. CN(C)c1ccc(-c2nc(S)nc(N)c2C(=N)NN=Cc2ccc(Cl)cc2)cc1

Result:
1: 96.2; 2: 101; 3: 101

###

For each entry below, report its % growth at 10 µM value.
# Tested on: HT29
# Assay type: cell-based
# EXPERIMENTAL SETUP: Homo sapiens, HT-29, one dose 10^-5 M, 48 h
Answers are plain numbers, in %.

Worked cases, answers included:
>>> print(df.to_string())
                                   molecule  reported_property  unit_string  number
0  N#Cc1c(N)nc(S)nc1-c1ccc(Cl)cc1Cl [Compound 1c]  % growth at 10 µM            %    24.7
1  N=C(NN=Cc1ccc(Cl)cc1)c1c(N)nc(S)nc1-c1ccc(Cl)cc1 [Compound 4h]  % growth at 10 µM            %      99
2  N=C(NN=Cc1ccc(Br)cc1)c1c(N)nc(S)nc1-c1ccc(Cl)cc1Cl [Compound 4q]  % growth at 10 µM            %     112

I need % growth at 10 µM for every entry listed below, if you could help.
1. N=C(NN=Cc1ccccc1)c1c(N)nc(S)nc1-c1ccc(Cl)cc1 [Compound 4g]
2. N=C(NN=Cc1ccccc1)c1c(N)nc(S)nc1-c1ccc(Cl)cc1Cl [Compound 4m]

Result:
[78.5, 108]

These measurements were taken from paper PMC10866072.
